Tested on: ATP;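 further: ATP exposure 15 min at 22 °C before imaging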
Test: switch fluorescence ratio, 500 uM ATP over buffer (Cy3 cluster intensity, sum of 5 cycles each) (fold (ratio)); higher = stronger signal-on switching upon ATP binding; sequences stand for … in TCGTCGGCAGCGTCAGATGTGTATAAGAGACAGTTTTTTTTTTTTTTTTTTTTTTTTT…TC
Conditions: aptamer strand: ATP DNA aptamer (quencher-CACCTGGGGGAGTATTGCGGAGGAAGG + anchor), 100 nM annealed; ATP concentration: 500 uM
I'd appreciate it if you could supply switch fluorescence ratio values for the items below.
Respond numerically, and do not add a unit to the figure.

Given the sequence ATTCGGGTGT , what is its reported switch fluorescence ratio?
1.15

Given the sequence GGGGGTTTAT , what is its reported switch fluorescence ratio?
1.01

Given the sequence AATTGACCCC , what is its reported switch fluorescence ratio?
1.09

Given the sequence CGGGTTGTGG , what is its reported switch fluorescence ratio?
1.02

Given the sequence AATCGGATGG , what is its reported switch fluorescence ratio?
1.02

Given the sequence TAGTCGCGTC , what is its reported switch fluorescence ratio?
1

Given the sequence GAAGCGTTTG , what is its reported switch fluorescence ratio?
0.98

Given the sequence TTTGCCCCCT , what is its reported switch fluorescence ratio?
1.04

Given the sequence AGAAGCGCGG , what is its reported switch fluorescence ratio?
0.975

Given the sequence TTTACTATTT , what is its reported switch fluorescence ratio?
0.988

Given the sequence TCCACCGA , what is its reported switch fluorescence ratio?
1.04

Given the sequence GTGGGGATCC , what is its reported switch fluorescence ratio?
1.03

Given the sequence GATGGCGTAT , what is its reported switch fluorescence ratio?
0.98

Given the sequence TTAAGGCATT , what is its reported switch fluorescence ratio?
1.06

Given the sequence GGGTTGATCT , what is its reported switch fluorescence ratio?
0.993

Given the sequence GGCTCTCGTA , what is its reported switch fluorescence ratio?
0.992

Given the sequence GGTTTCCTGG , what is its reported switch fluorescence ratio?
0.971

Given the sequence ATTTGCCTGT , what is its reported switch fluorescence ratio?
0.982

Given the sequence TTTTTCGCTT , what is its reported switch fluorescence ratio?
1.06

Given the sequence ACTTGGTCCA , what is its reported switch fluorescence ratio?
0.987

Given the sequence TTATCCAGGA , what is its reported switch fluorescence ratio?
1.01

Given the sequence CAGTGAGACT , what is its reported switch fluorescence ratio?
1.02

Given the sequence TGCTTGAGTC , what is its reported switch fluorescence ratio?
1.01

Given the sequence TTTTTGAGAG , what is its reported switch fluorescence ratio?
0.998

Given the sequence ATTGACGGCA , what is its reported switch fluorescence ratio?
1.02

Given the sequence TTTACTGCTT , what is its reported switch fluorescence ratio?
0.981

Given the sequence AGGGTCTTTT , what is its reported switch fluorescence ratio?
1.03

Given the sequence TGTGGCATTA , what is its reported switch fluorescence ratio?
0.992

Given the sequence GATTTGTGAC , what is its reported switch fluorescence ratio?
0.977

Given the sequence CCGCTTTTAT , what is its reported switch fluorescence ratio?
2.69

Given the sequence AGAGAGACGG , what is its reported switch fluorescence ratio?
0.997

Given the sequence GAAGTCTTAA , what is its reported switch fluorescence ratio?
1

Given the sequence AAGGAAAAAC , what is its reported switch fluorescence ratio?
1.03

Given the sequence GAGAGGCAAA , what is its reported switch fluorescence ratio?
1.01

Given the sequence CATGGGAATT , what is its reported switch fluorescence ratio?
0.982

Given the sequence CGCGGTCAAC , what is its reported switch fluorescence ratio?
1.35

Given the sequence TTGAGGGTAT , what is its reported switch fluorescence ratio?
0.998

Given the sequence TTCTCAGAGG , what is its reported switch fluorescence ratio?
1.01

Given the sequence ATCGGCAGGC , what is its reported switch fluorescence ratio?
1.22

Given the sequence ATCCGCGTAG , what is its reported switch fluorescence ratio?
2.17

Given the sequence CAAATGGGAC , what is its reported switch fluorescence ratio?
1.09

Given the sequence TATGGGAGGC , what is its reported switch fluorescence ratio?
1.01

Given the sequence AAATCTAGAC , what is its reported switch fluorescence ratio?
0.998
